# polymerase ribozyme fitness (log ratio) per entry
B1: TPR t1 (parent)
chain: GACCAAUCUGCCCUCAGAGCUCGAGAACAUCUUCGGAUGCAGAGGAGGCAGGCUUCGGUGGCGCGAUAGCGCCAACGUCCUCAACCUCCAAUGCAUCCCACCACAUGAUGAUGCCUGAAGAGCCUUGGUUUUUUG

# Variants of: B1
# assay explanation: polymerase ribozyme fitness, log enrichment relative to wild type (log ratio); higher = more active; in vitro selection for triplet polymerase activity

1. GACCAAUCUGCCCUCAGAGCUCGAGAACAUCUUCGGAUGCAGAGGAGGCAGUCUUAGGUGGCGCGAUAGCGCCAACGUCCUCAACCUCCAAUGCAUCCUACCACAUGAUGAUGCCUGAAGAGCCUUGGUUUUUUG [G52U C56A C99U] = -4.58

Prompt: Tell me the measured polymerase ribozyme fitness (log ratio) of GACCAAUCUGCCCUCAGAGCUCGAGGACAUCUUCGGAUGCAGAGGAGGCAGGCUUCGGUGGCGCGAUAGCGCCAACGUCCUCAACCUCCAAUACAUCCCACCACAUGAUGAUGACUGAAGAGCCUUGGUUUUUUG [A26G G93A C114A] , please.
Response: -3.14

Prompt: // same read-out, input: GACCAGUCUGCCCUCAGAGCUCGAGAACAUCUUCGGAUGCAGAGGCGGAAGGAUCCGGUGGCGCGAUAGCGCCAACGUCCUCAACCUCCAAUGCAUCCCACCACAUGAUGAUGCCUGAAGAGCCUUUGUUUUUUG [A6G A46C C49A C53A U55C G127U]
Response: -3.07

Prompt: // same read-out, input: GACCAAUCUGCCCUCAGAGCGCGAGAACAUCUUCGGAUGCAGAGGAGGCAGGCUUCGGUGGCGCGGUAGCGCAAACGUCCUCAACCUCCAAUGAAUCCCACCACAUGAUGAUGCCUGAAGAGCCUUGGUUUUUUG [U21G A66G C73A C94A]
Response: -4.63

Prompt: // same read-out, input: GACCAAUCUGCCCUCAGAGCUCGAGAACAUCUUCGGAUGCAGAGGAGGCAGGCUUCGGUGGCGCGAUAGCGCCAACGUCCUCAACCUCCAAUGCAUUACACCACAUGAUGAUGCCUGAAGAGCCUUGGUUUUUUG [C97U C98A]
Response: -4.41

Taken from the RNAGym collection of RNA variant scans (doi:10.1073/pnas.2313332121).
